System: SF-268
Assay: NCI tumour cell line growth inhibition, 48 h
Activity calls are given as the source filed them. Rule as the data show it: active = GI50 up to about 1.1 µM and inactive = higher.
Readout type: GI50

Example cases with answers are listed next.
The reported SF-268 GI50 of COc1ccc([C@H]2CC3C(=O)N(c4ccc(OC)cc4)C(=O)C3c3[nH]c4ccccc4c32)cc1 (stereo partly drawn) is 82 µM (inactive)

The reported SF-268 GI50 of CN1c2ccccc2N(C)C23N(C)c4ccccc4N(C)C12N(C)c1ccccc1N3C (stereo not drawn) is > 100 µM (inactive)

The reported SF-268 GI50 of COc1ccc(-c2cn3c(nc4ccccc43)c(/C=C/c3cccs3)n2)cc1 is 59.2 µM (inactive)

The reported SF-268 GI50 of Clc1cccc(Cl)c1C1SCC2=Nc3ccccc3CN21 (stereo not drawn) is 39.9 µM (inactive)

The reported SF-268 GI50 of COP(=O)(OC)C12CCOCCN1c1ccccc1C2=O (stereo not drawn) is > 100 µM (inactive)

New cases:
The reported SF-268 GI50 of C[N+]12CCCCC1C(CN1C(=O)c3ccccc3C1=O)CCC2 (stereo not drawn) is > 100 µM (inactive)

The reported SF-268 GI50 of N#CCC12CC=CCC1=C(O)C(=O)c1ccc(O)cc12 (stereo not drawn) is > 100 µM (inactive)

The reported SF-268 GI50 of O=c1[nH]c(S)nc2c1sc(=S)n2-c1ccccc1 is > 100 µM (inactive)

The reported SF-268 GI50 of N#Cc1c(C#N)c(-c2ccccc2)n(Cc2ccccc2)c1N is 47.2 µM (inactive)

The reported SF-268 GI50 of CN1CCc2cc(O)c3cc2C1Cc1ccc(cc1)Oc1cc(ccc1O)CC1c2c(cc4c(c2O3)OCO4)CCN1C (stereo not drawn) is 33.1 µM (inactive)

The reported SF-268 GI50 of CC(C)C1C(=O)N(c2c(F)c(F)c(F)c(F)c2F)C(=S)N1CC[S+]([O-])c1ccccc1 (stereo not drawn) is 16.7 µM (inactive)

The reported SF-268 GI50 of COc1cccc(C2SC(=N)Nc3c2c(C)nn3C(=O)c2ccccc2O)c1 (stereo not drawn) is > 4.32 µM (inactive)
